Numbers sourced from the supplement of paper PMC9170038.

System: MS2 coat protein
Test: apparent KD of MS2 coat protein; higher = weaker reporter binding
Settings: Eterna round: R107; input ligand: arginine 13.2 mM
Assign Condition met to entries whose apparent KD of MS2 coat protein meets or exceeds 20 nM; assign Condition not met to the rest.

Example entries and their recorded answers appear below.
# input.sequence, qualitative.label
data = [
    ("UACAUGAGGAUCACCCAUGUAUAGAGGGAUACCAGUGUCAGUGAGCACCCUUGGCAGCCCGCGAACAAUGGGUGCGCUAUAUAGU [#20 Exclusion-TheophyllineA]", "Condition not met"),
    ("CAAUACGUAACUGAUACCAGUGUACUGACAUGAGGAUCACCCAUGUUGGGUUUUGUUGUACACCCUUGGCAGCAGAAUCGUAUUG [AstrosExyTheB#11]", "Condition met"),
    ("GAUGAUAUUGCAGAUACCAGACACAUGAGGAUCACCCAUGUGUCCUCGCCAGCGGCAUGUGUCCCUUGGCAGCUGCGAUAUCAUC [Colombia]", "Condition not met"),
    ("AGGACAUGAGGAUCACCCAUGUACACUGAAGGAGCGUCGAGAACGACAGGUAGGUCGCAGGCUAAGGAAGGUGAUGCUCAAGAAG [Exclusion Arginine A GF6]", "Condition met"),
    ("AAUAACAUGAGGAUCACCCAUGUAAAAGAUACCAGAGUGAUGAUCCUCCCUUGGCAGCUUAACGCUGAUUGAUUACAAUCAGCGA [TheoAS 3 #Tail #MS2BeforeAptamer #BothOrNeither]", "Condition met"),
    ("UGACAUUGCUCAGAUACCAGACAUGAGGAUCACCCAUGUACCAAGGUAAAGAAAUAACGUGUCCCUUGGCAGCUGAGCAAUGUCU [TheoBX 1 #MS2Left #Theo2]", "Condition not met"),
    ("AGUGUUAUAACUGAUACCAGACUUUUGCUUAUACAUGAGGAUCACCCAUGUAAAAUGGUUGUCCCUUGGCAGCAGAAAAUACACA [JR_SSTheophyB_Sub007]", "Condition met"),
    ("ACAUGAGGAUCACCCAUGUAGCCUAGGGAAGGAGCGUCGUAAGAGACAGGUAGGUCGCCCGCAUGUGGAUCACCCAUGUCGAGGG [SSArg A #11]", "Condition met"),
]

Threshold query (apparent KD of MS2 coat protein >= 20 nM) on AUAAUAAUCAUGGGUGAAGGUCCUCGCAAACGAGGACCGGUACGGCCGCCACUCGAACAUGAGGAUCACCCAUGUGUGAGGACCU [M' - T' - T - MS2 - T'' Design 2] Condition met

Threshold query (apparent KD of MS2 coat protein >= 20 nM) on ACAUGAGGAUCACCCAUGUAGUGGCACGAUACCAGCUGAUCCCGUGGCCCUUGGCAGCGUCCGGUGUGGUGCGCCGGGAUGGAGC [ZSZMULLIN] Condition met

Threshold query (apparent KD of MS2 coat protein >= 20 nM) on UAUAUAUAUAUUGAUACCAGCAGAGAAAACAUAUAUCCUAACAUGAGGAUCACCCAUGUAUGCCCUUGGCAGCGAUAUAUAUAUA [8.A] Condition met
